Item-by-item account of binding response (% of DMSO)
molecular target: Desmoglein-3 (Homo sapiens); assay: inhibitors of anti-DSG3 scFv binding to DSG3, confirmation, biochemical, cherry pick 1, bead-based, flow cytometry (AID 588466); conditions: Protein G beads with DSG3, scFv-GFP binding, at 10 µM, stronger effect = lower value;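 also: 100% = 2% DMSO vehicle and 0% = excess soluble DSG3 blocking control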
The campaign covered roughly 2,100 compounds. About 30 (1%) were called active. These entries were drawn from the full list.

- molecule: "COc1ccc(CC(=O)OCC(=O)NCc2ccc3c(c2)OCO3)cc1OC"
  binding response (% of DMSO) / %: 99.5
- molecule: "O=C(Oc1cccc(C(=S)N2CCOCC2)c1)c1ccccc1"
  binding response (% of DMSO) / %: 94.4
- molecule: "COc1ccc(CCn2nnnc2C(C(C)C)N2CCN(c3ncccn3)CC2)cc1OC (stereo unspecified)"
  binding response (% of DMSO) / %: 96.4
- molecule: "CC1=C(C(N)=O)C(c2cccnc2)n2nc(SCc3ccccc3Cl)nc2N1 (stereo unspecified)"
  binding response (% of DMSO) / %: 103
- molecule: "Cc1ccc(Sc2ncccc2COC(=O)Nc2c(C)cccc2C)cc1"
  binding response (% of DMSO) / %: 96.3
- molecule: "CCOC(=O)N1CCC(n2c(SCC(=O)c3ccccc3)nc3ccsc3c2=O)CC1"
  binding response (% of DMSO) / %: 93.2
